- experimental_target: LTD4 receptor (Cavia porcellus)
- Construct: guinea pig pulm-omembranous protein and a test compound; from tissue; host or cells: guinea pig lung membranes
- Sequence (Q2NNR5 whole entry): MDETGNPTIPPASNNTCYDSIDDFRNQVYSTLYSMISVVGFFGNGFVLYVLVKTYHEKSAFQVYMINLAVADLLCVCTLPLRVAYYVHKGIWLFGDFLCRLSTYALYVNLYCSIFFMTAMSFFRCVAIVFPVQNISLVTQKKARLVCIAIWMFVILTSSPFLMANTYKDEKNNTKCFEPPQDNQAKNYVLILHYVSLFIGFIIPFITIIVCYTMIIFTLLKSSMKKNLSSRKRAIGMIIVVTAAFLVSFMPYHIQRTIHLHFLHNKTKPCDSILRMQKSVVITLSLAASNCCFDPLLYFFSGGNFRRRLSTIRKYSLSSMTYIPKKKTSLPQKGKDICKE
- experiment_notes: LTD4 Receptor Binding Inhibition Test ([3H]LTD4, guinea pig pulmomembranous protein)
- experimental_context: read-out: LTD4 receptor dissociation constant (KD)
parameter_measured: log10 Ki (log10 of the value in µM)
Values are log10 of Ki in µM.

[Q] So what does the record say about log10 Ki for O=C1CCc2cccc(OCCCN3CCN(Cc4ccc5ccccc5n4)CC3)c2N1 ?
[A] 0.30

[Q] So what does the record say about log10 Ki for Cc1ccc(OCCCCCN2CCN(Cc3ccc4ccccc4n3)CC2)c2c1NC(=O)C2(C)C ?
[A] 1.70

[Q] So what does the record say about log10 Ki for CC1(C)C(=O)Nc2ccc(OCCN3CCCN(Cc4ccc5ccccc5n4)CC3)cc21 [Example 50, dimaleate] ?
[A] 0.93

[Q] So what does the record say about log10 Ki for Cc1ccc(OCCN2CCN(Cc3ccc4ccccc4n3)CC2)c2c1NC(=O)C2(C)C ?
[A] 0.77

[Q] So what does the record say about log10 Ki for O=c1ccc2ccc(OCCCN3CCN(Cc4ccc5ccccc5n4)CC3)cc2[nH]1 ?
[A] 0.30

[Q] So what does the record say about log10 Ki for CC1(C)C(=O)Nc2cccc(OCCCN3CCCN(Cc4ccc5ccccc5n4)CC3)c21 ?
[A] 1.55

[Q] So what does the record say about log10 Ki for O=c1ccc2ccc(OCCN3CCCN(Cc4ccc5ccccc5n4)CC3)cc2[nH]1 ?
[A] 0.94

[Q] So what does the record say about log10 Ki for Cn1c(CN2CCCN(CCOc3ccc4[nH]c(=O)ccc4c3)CC2)nc2ccccc21 ?
[A] 2.04

[Q] So what does the record say about log10 Ki for Cc1ccc(OCCCN2CCCN(Cc3ccc4ccccc4n3)CC2)c2c1NC(=O)CC2 ?
[A] 0.94

----------
- experimental_target: isolated guinea pig ileum (Cavia porcellus, UniProt Q2NNR5)
- Construct: An isolated guinea pig ileum was cut into about 2 cm lengths; from tissue; host or cells: guinea pig ileum
- experiment_notes: Anti-LTD4 action on isolated guinea pig ileum (LTD4 contraction)
- Type: cell-based
- experimental_context: 10^-5 M test compound; contraction caused by 10^-8 M LTD4; read-out: Anti-LTD4 action (inhibition rate)
- Procedure: Antihistaminic Action and Anti-LTD4 Action (In vitro Tests) An isolated guinea pig ileum was cut into about 2 cm lengths. Each ileum piece was suspended in a 20-ml container filled with the Tyrode's buffer. An isotonic contractive response by histamine or LTD4 was recorded on a recorder. The Tyrode's buffer was controlled at 30° C., through which a mixed gas (95%O2 -5%CO2) was bubbled.
# binarize inhibition at 10 µM: threshold 20% inclusive, high side TRUE, low side FALSE

[Q] Given Cc1ccc(OCCCN2CCN(Cc3ccc4ccccc4n3)CC2)c2c1NC(=O)C2(C)C , state whether its inhibition at 10 µM is at least 20%.
[A] TRUE

[Q] Given Cn1c(CN2CCCN(CCOc3ccc4ccc(=O)[nH]c4c3)CC2)nc2ccccc21 , state whether its inhibition at 10 µM is at least 20%.
[A] FALSE

[Q] Given O=C1CSc2cc(OCCCN3CCN(Cc4ccc5ccccc5n4)CC3)ccc2N1 , state whether its inhibition at 10 µM is at least 20%.
[A] FALSE

[Q] Given O=c1ccc2ccc(OCCN3CCN(Cc4ccc5ccccc5n4)CC3)cc2[nH]1 , state whether its inhibition at 10 µM is at least 20%.
[A] TRUE

----------
- experimental_target: isolated guinea pig ileum (Cavia porcellus)
- Construct: An isolated guinea pig ileum was cut into about 2 cm lengths; from tissue; host or cells: guinea pig ileum
- experiment_notes: Anti-LTD4 action on isolated guinea pig ileum (LTD4 contraction)
- Assay type: cell-based
- experimental_context: 10^-5 M test compound; contraction caused by 10^-8 M LTD4; read-out: Anti-LTD4 action (inhibition rate)
Counter-ions that a name gives are not always drawn.
Recorded inhibition at 10 µM split into classes I: < 20%; II: ≥ 20% and < 30%; III: ≥ 30%

[Q] Category lookup for the compound CC1(C)C(=O)Nc2cc(OCCCCCN3CCN(Cc4ccc5ccccc5n4)CC3)ccc21
[A] I

[Q] Category lookup for the compound CC1(C)C(=O)Nc2ccc(OCCN3CCN(Cc4ccc5ccccc5n4)CC3)cc21
[A] I

[Q] Category lookup for the compound CC1(C)C(=O)Nc2c(OCCCN3CCN(Cc4ccc5ccccc5n4)CC3)cccc21
[A] III

[Q] Category lookup for the compound O=C1CCc2cccc(OCCCCN3CCN(Cc4ccc5ccccc5n4)CC3)c2N1
[A] III

[Q] Category lookup for the compound O=C1CCc2cccc(OCCCN3CCCN(Cc4ccc5ccccc5n4)CC3)c2N1
[A] I

[Q] Category lookup for the compound CC1(C)C(=O)Nc2cc(OCCCN3CCCN(Cc4ccc5ccccc5n4)CC3)ccc21
[A] II

[Q] Category lookup for the compound CC1(C)C(=O)Nc2c(OCCCN3CCCN(Cc4ccc5ccccc5n4)CC3)cccc21
[A] II

[Q] Category lookup for the compound O=C1CCc2cccc(OCCCCN3CCCN(Cc4ccc5ccccc5n4)CC3)c2N1
[A] II

[Q] Category lookup for the compound O=C1CCc2ccc(OCCN3CCCN(Cc4ccc5ccccc5n4)CC3)cc2N1
[A] I

[Q] Category lookup for the compound O=c1ccc2ccc(OCCCN3CCN(Cc4ccc5ccccc5n4)CC3)cc2[nH]1
[A] III

[Q] Category lookup for the compound Cc1ccc(OCCCCCN2CCN(Cc3ccc4ccccc4n3)CC2)c2c1NC(=O)C2(C)C
[A] III

[Q] Category lookup for the compound Cc1ccc(OCCCN2CCN(Cc3nc4ccccc4n3C)CC2)c2c1NC(=O)C2(C)C
[A] II

[Q] Category lookup for the compound CCOCCn1c(CN2CCCN(CCCOc3ccc4c(c3)SCC(=O)N4)CC2)nc2ccccc21
[A] II

[Q] Category lookup for the compound O=c1ccc2ccc(OCCN3CCCN(Cc4ccc5ccccc5n4)CC3)cc2[nH]1
[A] I

[Q] Category lookup for the compound CC1(C)C(=O)Nc2cccc(OCCCN3CCCN(Cc4ccc5ccccc5n4)CC3)c21
[A] II

[Q] Category lookup for the compound O=C1CSc2cc(OCCCN3CCN(C(=O)c4ccc5ccccc5n4)CC3)ccc2N1 [Example 102, maleate]
[A] I

[Q] Category lookup for the compound Cc1ccc(OCCN2CCCN(Cc3ccc4ccccc4n3)CC2)c2c1NC(=O)CC2
[A] I

Value source: patent US6127360A
